- EXPERIMENT_DESCRIPTION: Nuclear factor erythroid 2-related factor 2/antioxidant responsive element (Nrf2/ARE) small molecule agonists: luciferase reporter gene qHTS assay in human keratinocytes (AID 1919969); further: nearly all actives have a fitted effect of over 35% in size
- RECORDED_CONDITIONS: KeratinoSens HaCaT ARE-luciferase, luminescence, 24 h; series mostly up to 92.4 µM
Results filed as inconclusive are left out. The source made the active and inactive calls. The call rests on the fitted dose curve.
A correct response names exactly one class from active, inactive

                                   compound     class
0  CCC(C)(C#N)N=NC(C)(C#N)CC (stereo not drawn)  inactive
1  COC(C)(C)CCCC(C)C/C=C/C(C)=C/C(=O)OC(C)C (stereo not drawn)    active

We next turn to a different compound, shown below.
Tell me the assay call for Cc1ccccc1[N+](=O)[O-] please.
inactive

###

- TEST_TARGET: Muscarinic acetylcholine receptor M1 (Homo sapiens) (UniProt P11229)
- Sequence (P11229 whole entry, looked up): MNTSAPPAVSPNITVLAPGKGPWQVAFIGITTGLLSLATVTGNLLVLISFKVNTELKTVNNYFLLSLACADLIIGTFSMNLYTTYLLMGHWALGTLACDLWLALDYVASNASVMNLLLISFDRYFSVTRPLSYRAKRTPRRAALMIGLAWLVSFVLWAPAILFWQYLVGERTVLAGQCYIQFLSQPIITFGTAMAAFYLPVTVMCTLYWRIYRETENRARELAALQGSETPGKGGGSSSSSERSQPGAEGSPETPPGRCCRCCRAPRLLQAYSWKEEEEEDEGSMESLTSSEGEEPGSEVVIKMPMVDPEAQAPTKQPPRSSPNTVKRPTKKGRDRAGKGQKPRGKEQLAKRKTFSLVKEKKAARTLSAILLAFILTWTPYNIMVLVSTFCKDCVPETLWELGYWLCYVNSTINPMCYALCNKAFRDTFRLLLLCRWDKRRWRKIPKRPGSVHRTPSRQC
- EXPERIMENT_DESCRIPTION: Cholinergic receptor muscarinic 1 (CHRM1) small molecule antagonists, cell-based qHTS assay (AID 1963588); further: nearly all actives have a fitted effect of over 40% in size
- RECORDED_CONDITIONS: CHRM1-CHO antagonist mode, calcium flux fluorescence; series mostly up to 61.5 µM
Inconclusive results are not listed. Active and inactive are the calls of the source. The call rests on the fitted dose curve.
A correct response names exactly one class from Y for active, N for inactive

>>> df
                                   compound                               test_target  class
0                          C=CCc1ccc(OC)cc1  Muscarinic acetylcholine receptor M1 (Homo sapiens) (UniProt P11229)      N
1  C=C(C)C(=O)OCC(CC)CCCC (configuration not stated)  Muscarinic acetylcholine receptor M1 (Homo sapiens) (UniProt P11229)      N
2                    O=Cc1cccc(Oc2ccccc2)c1  Muscarinic acetylcholine receptor M1 (Homo sapiens) (UniProt P11229)      N
3                                     C#CCO  Muscarinic acetylcholine receptor M1 (Homo sapiens) (UniProt P11229)      N
4                                   COCCC#N  Muscarinic acetylcholine receptor M1 (Homo sapiens) (UniProt P11229)      N
5               CCOP(=O)(OCC)OP(=O)(OCC)OCC  Muscarinic acetylcholine receptor M1 (Homo sapiens) (UniProt P11229)      N
6                     Cl[C@H]1OCCO[C@@H]1Cl  Muscarinic acetylcholine receptor M1 (Homo sapiens) (UniProt P11229)      N
7                            COc1ccc(CO)cc1  Muscarinic acetylcholine receptor M1 (Homo sapiens) (UniProt P11229)      N
8                                N#CC(Cl)Cl  Muscarinic acetylcholine receptor M1 (Homo sapiens) (UniProt P11229)      N
9           CN1CCC(N(Cc2ccccc2)c2ccccc2)CC1  Muscarinic acetylcholine receptor M1 (Homo sapiens) (UniProt P11229)      Y

Identify the outcome logged in this assay for the compound shown: c1cc2c(c(N3CCNCC3)c1)OCCO2
N

Which result was noted for this compound in the test: S=C=S
N

Answer briefly: the call reported for Cl/C=C/Cl in this assay.
N

I'd appreciate the recorded outcome for N#Cc1ccccc1N from this test.
N

Answer briefly: the call reported for ClC1=C(Cl)C2(Cl)C3C(Cl)C(Cl)CC3C1(Cl)C2(Cl)Cl (configuration not stated) in this assay.
N

Please share the test call associated with CCC(=O)O[C@@H]1C=C2CCC3C(CCC4(C)C3CC[C@@H]4OC(=O)CC)C2CC1 (some centres not stated) .
N
